test: Antiproliferative activity against mink Mv1Lu-p3TP-Lux cells by luciferase reporter assay; assay type: functional, cell-based, Neovison vison; details: Neogale vison
Record form. Attribute: pIC50. Fill in for each entry.
Numbers only, as −log10 of the molar value.

Example cases with answers are listed next.
{"Compound": "CN(C)CCCCCOc1ccc2c(-c3c(-c4ccccn4)nn4c3CCC4)ccnc2c1", "pIC50": 7.62}
{"Compound": "Cc1cccc(-c2nn3c(c2-c2ccnc4c(F)cccc24)CCC3)n1", "pIC50": 6.02}
{"Compound": "CN1CCCC1CCCOc1ccc2c(-c3c(-c4ccccn4)nn4c3CCC4)ccnc2c1 (stereo not given)", "pIC50": 7.77}
{"Compound": "CCN(C)CCOc1ccc2c(-c3c(-c4ccccn4)nn4c3CCC4)ccnc2c1", "pIC50": 7.21}
{"Compound": "CN(C)C(=O)c1ccc(Oc2ccc3c(-c4c(-c5ccccn5)nn5c4CCC5)ccnc3c2)cc1", "pIC50": 4.82}

Batch lookup, pIC50 per entry.
1. ClCCOc1ccc2c(-c3c(-c4ccccn4)nn4c3CCC4)ccnc2c1
2. Oc1ccc2c(-c3c(-c4ccccn4)nn4c3CCC4)ccnc2c1

1: 7.18; 2: 6.70
